Field: pIC50. Provide a value for each of the compounds that follow.
- MEASUREMENT TARGET: pEGFR (Tyr1068) in PC-9 cells (Ex19Del) (Homo sapiens (Human), UniProt P00533, DEL746-750)
- Sequence (P00533 other isoform, or with tags, fused parts or gaps del 746-750): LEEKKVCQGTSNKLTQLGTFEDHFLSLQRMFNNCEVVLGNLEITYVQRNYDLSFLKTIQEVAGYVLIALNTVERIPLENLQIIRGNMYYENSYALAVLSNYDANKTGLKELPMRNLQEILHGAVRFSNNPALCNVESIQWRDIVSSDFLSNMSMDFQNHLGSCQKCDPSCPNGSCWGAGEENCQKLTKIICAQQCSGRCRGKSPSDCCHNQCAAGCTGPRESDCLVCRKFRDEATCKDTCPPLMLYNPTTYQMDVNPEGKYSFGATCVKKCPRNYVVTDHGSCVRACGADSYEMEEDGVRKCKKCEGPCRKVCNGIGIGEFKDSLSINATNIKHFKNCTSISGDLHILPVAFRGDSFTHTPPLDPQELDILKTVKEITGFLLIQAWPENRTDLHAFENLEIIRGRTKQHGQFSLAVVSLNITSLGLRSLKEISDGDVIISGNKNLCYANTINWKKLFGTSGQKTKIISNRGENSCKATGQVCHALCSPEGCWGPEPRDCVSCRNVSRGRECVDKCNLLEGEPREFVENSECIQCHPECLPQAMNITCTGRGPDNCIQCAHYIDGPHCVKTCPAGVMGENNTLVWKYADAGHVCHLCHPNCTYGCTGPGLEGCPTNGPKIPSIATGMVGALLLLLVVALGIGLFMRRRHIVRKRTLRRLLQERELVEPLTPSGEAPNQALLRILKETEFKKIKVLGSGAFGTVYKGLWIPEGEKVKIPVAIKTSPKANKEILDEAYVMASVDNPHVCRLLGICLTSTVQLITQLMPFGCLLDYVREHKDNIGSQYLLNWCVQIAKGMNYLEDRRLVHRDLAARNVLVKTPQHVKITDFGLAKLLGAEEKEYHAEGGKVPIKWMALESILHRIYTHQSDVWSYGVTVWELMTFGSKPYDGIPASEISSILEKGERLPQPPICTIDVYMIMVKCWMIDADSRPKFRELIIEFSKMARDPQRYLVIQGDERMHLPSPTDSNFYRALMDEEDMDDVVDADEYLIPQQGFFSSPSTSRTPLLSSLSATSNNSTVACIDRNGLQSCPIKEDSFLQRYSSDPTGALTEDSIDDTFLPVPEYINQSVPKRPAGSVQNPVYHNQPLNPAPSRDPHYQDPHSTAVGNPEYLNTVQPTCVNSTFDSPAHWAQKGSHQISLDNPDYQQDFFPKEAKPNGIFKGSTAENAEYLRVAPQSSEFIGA
- METHOD: PC-9 pEGFR AlphaLISA assay
- PROTOCOL CONDITIONS: 4 hours incubation, p-EGFR (Tyr1068) AlphaLISA, read-out: Ext pEGFR_PC-9 Ex19Del IC50
Numbers only, as −log10 of the molar value.

Hey, quick one: what's pIC50 for each of these?
1. COc1cc2ncnc(-c3cn(C)nc3-c3ccccc3)c2cc1N1CCOCC1 [Example 160]
2. COc1cc2ncnc(-c3cn(C)nc3-c3ccccc3)c2nc1O[C@@H](C)c1cn(C)nn1 [Example 44]
3. Cn1cc(-c2ccc3c(-c4c[nH]nc4-c4cc(F)ccc4F)ncnc3c2)cn1 [Example 444]

Result:
8.08
7.84
9.30

Hey, quick one: what's pIC50 for each of these?
1. COc1cc2ncnc(-c3cn(CCO)nc3-c3ccccc3)c2cc1NC(=O)c1ccccc1F [Example 264]
2. COc1cc2ncnc(-c3cn(C)nc3-c3ccccc3)c2cc1NC(=O)c1ccncc1C [Example 191]
3. [2H]C([2H])([2H])Oc1cc2ncnc(-c3cn(C([2H])([2H])[2H])nc3-c3ccccc3)c2nc1NC(=O)C1(C(F)(F)F)CC1 [Example 486]
4. COc1cc2ncnc(-c3cn(C)nc3-c3ccccc3)c2cc1NC(=O)[C@@H]1C[C@H]1C(F)(F)F [Example 286]
5. COc1cc2ncnc(-c3cn(C)nc3-c3ccccc3)c2cc1OC(=O)N1[C@@H](C)CNC[C@@H]1C [Example 88]

Result:
[9.52, 8.19, 8.82, 8.37, 8.12]

====

Field: IC50. Provide a value for each of the compounds that follow.
- MEASUREMENT TARGET: EGFR (d746-750) (Homo sapiens (Human), UniProt P00533, DEL746-750)
- Sequence (P00533 other isoform, or with tags, fused parts or gaps del 1-694/del 746-750 limits assumed): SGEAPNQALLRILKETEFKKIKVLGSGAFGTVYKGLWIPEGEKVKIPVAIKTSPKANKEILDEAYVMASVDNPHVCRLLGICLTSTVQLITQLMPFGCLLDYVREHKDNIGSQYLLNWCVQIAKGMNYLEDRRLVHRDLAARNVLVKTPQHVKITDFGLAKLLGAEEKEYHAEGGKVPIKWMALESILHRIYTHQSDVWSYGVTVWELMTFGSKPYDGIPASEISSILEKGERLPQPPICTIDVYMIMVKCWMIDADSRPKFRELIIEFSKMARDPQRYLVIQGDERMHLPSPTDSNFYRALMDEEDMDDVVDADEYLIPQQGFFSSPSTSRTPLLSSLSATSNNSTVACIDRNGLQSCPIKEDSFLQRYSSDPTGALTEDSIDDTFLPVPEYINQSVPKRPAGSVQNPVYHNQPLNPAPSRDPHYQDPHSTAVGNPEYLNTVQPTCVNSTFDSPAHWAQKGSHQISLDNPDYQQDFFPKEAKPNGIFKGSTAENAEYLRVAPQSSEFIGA
- METHOD: Biochemical EGFR inhibition assay, EGFR (d746-750)
- PROTOCOL CONDITIONS: Caliper mobility shift; 1.0 mM ATP or ATP Km; read-out: Enz EGFR_Exon19-del746-750 IC50
Answers are plain numbers, in nM.

// solved cases for IC50 follow
Query: # IC50 lookup, item CCOc1cc2ncnc(-c3cn(C)nc3-c3ccccc3)c2cc1NC(=O)c1cnn(C(F)(F)F)c1
Result: 1.5

Query: # IC50 lookup, item COc1cc2ncnc(-c3cn(CC(F)F)nc3-c3ccccc3)c2cc1NC(=O)c1cnn(C(C)C)c1
Result: 1.4

Query: # IC50 lookup, item COc1cc2ncnc(-c3cn(C)nc3-c3ccccc3)c2cc1[C@@H]1CN(C)CCO1
Result: 5.2

Turning now to a further compound:
Query: # IC50 lookup, item COc1cc2ncnc(-c3cn(C)nc3-c3ccccc3)c2cc1O[C@H]1CCOC[C@@H]1F
Result: 1.1

====

- MEASUREMENT TARGET: EGFR (d746-750) (Homo sapiens (Human), UniProt P00533, DEL746-750)
- METHOD: Biochemical EGFR inhibition assay, EGFR (d746-750)
- PROTOCOL CONDITIONS: Caliper mobility shift; 1.0 mM ATP or ATP Km; read-out: Enz EGFR_Exon19-del746-750 IC50
Field: pIC50. Provide a value for each of the compounds that follow.
One number for each entry, as −log10 of the molar value.

Query: # pIC50 lookup, item COc1cc2ncnc(-c3cn(C)nc3-c3ccccc3)c2cc1NC(=O)C1CCC1 [Example 347]
Result: 8.92

Query: # pIC50 lookup, item COc1cc2ncnc(-c3cn(C)nc3-c3ccccc3)c2cc1NC(=O)c1c(Cl)cccc1Cl [Example 231]
Result: 9.00

Query: # pIC50 lookup, item [2H]C([2H])([2H])n1ncc(-c2ncnc3cc(OC)c(NC(=O)C4(C(F)(F)F)CC4)nc23)c1-c1ccccc1 [Example 492]
Result: 7.33

Turning now to a further compound:
Query: # pIC50 lookup, item COc1cc2ncnc(-c3cn(C)nc3-c3ccccc3)c2nc1OC(C)c1cocn1 (stereo not shown) [Example 28]
Result: 9.05
